system.tested: Pseudomonas sp. SE83 CPC acylase AcyII, wild type, SEQ ID NO: 2 (alpha-subunit SEQ ID NO: 4, beta-subunit SEQ ID NO: 5) (Pseudomonas sp., UniProt P15558)
experimental.details: End-product inhibition by 7-ACA (inhibition constant), wild-type CPC acylase
test.settings: end-product inhibition of CPC conversion; pH 8.5

structure.as.smiles | unit | Ki
CC(=O)OCC1=C(C(=O)O)N2C(=O)[C@@H](N)[C@H]2SC1 | µM | 400

###

system.tested: Pseudomonas sp. SE83 CPC acylase AcyII sixfold mutant S12, V121αA/G139αS/F58βN/I75βT/I176βV/S471βC (alpha-subunit SEQ ID NO: 7, beta-subunit SEQ ID NO: 8) (Pseudomonas sp., UniProt P15558, F297N/G140S/I314T/I415V/S710C/V122A)
experimental.details: End-product inhibition by 7-ACA (inhibition constant), S12 sixfold mutant
test.settings: end-product inhibition of CPC conversion; purified enzyme; pH 8.5
quantity.name: Ki

molecule | reported.measurement
CC(=O)OCC1=C(C(=O)O)N2C(=O)[C@@H](N)[C@H]2SC1 [7-ACA, 7-aminoacephalosporanic acid] | 1.9 mM
